Tested on: SR
Assay: NCI tumour cell line growth inhibition, 48 h
The source made the active and inactive calls. Rule as the data show it: active = GI50 up to about 1.1 µM and inactive = higher.
readout: GI50

{"columns": ["molecule", "target", "GI50"],
 "data": [
  ["O/N=C/c1ccc(O)c(O)c1", "SR", "37.2 µM (inactive)"],
  ["N#C/C(=C1\\OC(=O)C(c2ccc(Br)cc2)=C1O)c1ccc(Br)cc1", "SR", "17.9 µM (inactive)"],
  ["CCOC(=O)C(Cl)(NC(=O)NC(Cl)(C(=O)OCC)C(F)(F)F)C(F)(F)F (stereo unspecified)", "SR", "> 100 µM (inactive)"]
]}

What value of GI50 has been recorded for this entry: "CC1=C(SCCO)C(=O)c2ccccc2C1=O"
3.21 µM (inactive)

What value of GI50 has been recorded for this entry: "Nc1n[nH]c2c1Cc1c(n(Cc3ccc(Cl)cc3)c3ccccc13)C(=O)N2"
6.11 µM (inactive)

What value of GI50 has been recorded for this entry: "Cc1cccc(CP(Cc2cccc(C)c2)CC2(Cp3c4ccccc4c4ccccc43)COC2)c1"
1.15 µM (inactive)

----------
Listed next: entries and their corresponding GI50.
Tested on: CCRF-CEM
Assay: NCI tumour cell line growth inhibition, 48 h
Calls of active or inactive are those of the source. Rule as the data show it: active = GI50 up to about 1.1 µM and inactive = higher.

{"columns": ["molecule", "target", "readout.value"],
 "data": [
  ["N#C/C(=C1\\OC(=O)C(c2ccc(Br)cc2)=C1O)c1ccc(Br)cc1", "CCRF-CEM", "11.1 µM (inactive)"]
]}

What value of GI50 has been recorded for this entry: CN1NC(c2ccccc2)=C(C#N)C(=O)CC1c1ccccc1Cl (stereo not given)
> 100 µM (inactive)

What value of GI50 has been recorded for this entry: O=C1OCOC2(CCCC2)C1c1ccccc1 (stereo not given)
> 100 µM (inactive)

What value of GI50 has been recorded for this entry: "CCN(CC)CCCNc1ccc2nc(C)n3c4ccc(O)cc4c(=O)c1c23"
1.79 µM (inactive)

What value of GI50 has been recorded for this entry: "Brc1ccc2c(-c3nc(-c4c[nH]c5ccc(Br)cc45)cs3)c[nH]c2c1"
4.68 µM (inactive)

----------
Listed next: entries and their corresponding GI50.
Test system: OVCAR-3
Test: NCI tumour cell line growth inhibition, 48 h
Active and inactive are the calls of the source. No stated cut-off is given here; in the data, active = GI50 up to about 1.1 µM and inactive = higher.

Look over these answered cases.
{"columns": ["compound", "readout", "readout.value"],
 "data": [
  ["Cc1cc(Cl)ccc1NC(=O)C(=O)Cc1nc2ccccc2o1", "GI50", "> 100 µM (inactive)"],
  ["N/C(S)=N/N=C/c1ncccc1O", "GI50", "1.88 µM (inactive)"],
  ["N=C(N)NC(=N)Nc1ccc(S(=O)(=O)O)cc1", "GI50", "> 100 µM (inactive)"],
  ["COc1cc(C(=O)OCCn2[nH]c(-c3ccc(Cl)cc3)nc2=S)cc(OC)c1OC", "GI50", "51.3 µM (inactive)"]
]}

Notebook entry, OVCAR-3 assay: GI50 of O=C(NN1C(=O)CSC1c1ccc(C(F)(F)F)cc1)c1ccncc1 (stereo not drawn) = ?
> 100 µM (inactive)

Notebook entry, OVCAR-3 assay: GI50 of CC(=O)OC1CCn2nnc(CO)c21 (stereo not drawn) = ?
> 100 µM (inactive)

Notebook entry, OVCAR-3 assay: GI50 of "COC1=CC2=NCCc3n[nH]c(c32)C1=O" = ?
15.9 µM (inactive)

Notebook entry, OVCAR-3 assay: GI50 of "Cc1[nH]c2ccccc2c1/C=C/c1c(C)[nH]c2ccccc12" = ?
> 100 µM (inactive)

----------
Tested on: SK-MEL-5
Test: NCI tumour cell line growth inhibition, 48 h
Active and inactive are the calls of the source. Cut-off read from the data, not from the text of the source: active = GI50 up to about 1.1 µM and inactive = higher.
Listed next: entries and their corresponding GI50.

{"columns": ["compound", "GI50"],
 "data": [
  ["CCOc1ncn(-c2ccc(NC(=S)Nc3cccc(O)c3)cc2)n1", "> 100 µM (inactive)"],
  ["CCOP(=O)(CC1CC(O)(CNc2cc(Cl)nc(N)n2)C1)OCC (stereo not drawn)", "> 100 µM (inactive)"],
  ["CCN(CC)CCN1CCN=C2c3cc(OC)ccc3Nc3c([N+](=O)[O-])ccc1c32", "1.55 µM (inactive)"]
]}

What value of GI50 has been recorded for this entry: c1ccc(C2N3CCCCC3[C@@H]3c4[nH]c5ccccc5c4CCN23)nc1 (stereo partly drawn)
> 100 µM (inactive)

What value of GI50 has been recorded for this entry: "COc1cc2c(oc(=O)c3c4oc([Si](C)(C)C)cc4cc(OC)c23)c2cccc(OCc3ccccc3)c12"
38 µM (inactive)

What value of GI50 has been recorded for this entry: "CCOC(=O)c1ccc(/C(C)=N/NC(N)=S)cc1"
> 100 µM (inactive)

What value of GI50 has been recorded for this entry: COC(=O)CC1C2CC3C(C2=O)C13 (stereo not drawn)
> 100 µM (inactive)

What value of GI50 has been recorded for this entry: "C=C(C)[C@@H]1CC[C@]2(C(=O)O)CC[C@]3(C)[C@H](CC[C@@H]4[C@@]5(C)CC[C@H](O)C(C)(C)[C@@H]5CC[C@]43C)[C@@H]12"
4.19 µM (inactive)

----------
Test system: COLO 205
Assay: NCI tumour cell line growth inhibition, 48 h
The source made the active and inactive calls. Rule as the data show it: active = GI50 up to about 1.1 µM and inactive = higher.
Answer with one of the outcomes given here: label 1 for active, label 0 for inactive

Consider the worked cases shown below.
{"columns": ["compound", "class.assignment"],
 "data": [
  ["CCCCCCCCCC1CC(=O)OC2=C1C(=O)CCC2 (stereo not given)", "label 0"],
  ["COc1cccc(-c2nc(-c3cnccn3)n(C3OC(CO)C(O)C3O)n2)c1 (stereo not given)", "label 0"],
  ["CC(=O)O[C@H]1C(=O)[C@@]2(C)[C@H]([C@H](OC(=O)c3ccccc3)[C@]3(O)C[C@H](OC(=O)[C@H](O)[C@@H](NC(=O)C(C)(C)C)c4ccccc4)C(C)=C1C3(C)C)[C@]1(OC(C)=O)CO[C@@H]1C[C@@H]2O", "label 1"],
  ["N#C/C(=C\\c1ccc(Cl)cc1)c1nc2ccccc2c(=O)[nH]1", "label 0"],
  ["Oc1ccc2c(c1)OCC1c3ccccc3OC21 (stereo not given)", "label 0"],
  ["O=C1CSC(c2ccccc2O)N1c1ccc(-n2c(-c3ccccc3)nc3ccccc3c2=O)cc1 (stereo not given)", "label 0"],
  ["O=C1C(Br)=C(c2ccccc2)C(c2ccccc2)=C1c1ccccc1", "label 0"],
  ["O=C1OC(CN2CCOCC2)CN1/N=C/c1ccc([N+](=O)[O-])o1 (stereo not given)", "label 0"],
  ["COc1cc(O)c(C(=O)/C=C/c2ccc(OC)c(OCc3ccccc3)c2)c(OC)c1", "label 1"],
  ["O=c1oc2ccccc2n1P(=O)(Oc1ccc(Cl)cc1)n1c(=O)oc2ccccc21", "label 0"]
]}

Can you look up the reported call for "COc1cc2c(c(OC)c1OC)-c1ccc(OC)c(=O)cc1[C@@H](NC(=O)c1ccccc1)CC2" for me?
label 1

Can you look up the reported call for CCOC(=O)C(C)Sc1nnc(COc2ccc(Cl)cc2)n1-c1ccccc1 (stereo not given) for me?
label 0

Can you look up the reported call for CC(C)(Cl)C(Cl)CC/C(CBr)=C(\Cl)CCl (stereo not given) for me?
label 0

Can you look up the reported call for "C=CCN(C)CN(C)c1nc(N(C)C)nc(N(C)C)n1" for me?
label 0

Can you look up the reported call for CC12CCC(=O)N1c1cnccc1N2 (stereo not given) for me?
label 0

Can you look up the reported call for "Nc1ccc2c(c1)S(=O)(=O)c1cc(N)ccc1-2" for me?
label 0

Can you look up the reported call for "C/C=C/[C@@H]1O[C@H](CC#C[Si](C)(C)C)[C@@]2(C=O)C(C)=CC[C@H](C(C)C)[C@@H]12" for me?
label 0

Can you look up the reported call for [N-]=[N+]=NC1C2CC3C4CC5CC3[C@H](C2)C(C5)C41 (stereo not given in full) for me?
label 0

Can you look up the reported call for "O=C(O)C#Cc1ccc([N+](=O)[O-])cc1" for me?
label 0

Can you look up the reported call for "Nc1nc(S)nc(C(=O)Nc2nccs2)c1-c1ccccc1" for me?
label 0

Can you look up the reported call for "O=Cc1ccc(-c2nccc3c2[nH]c2ccccc23)o1" for me?
label 0

Can you look up the reported call for "CCOC(=O)C1=C(C#N)S(=O)(=O)c2c(oc(C)c2C)N1" for me?
label 0

Can you look up the reported call for CC(=O)OCC1OC(SC2=NC(=O)/C(=C/c3ccccc3)S2)C(OC(C)=O)C(OC(C)=O)C1OC(C)=O (stereo not given) for me?
label 0

Can you look up the reported call for "CC1=C(SCCO)C(=O)c2ccccc2C1=O" for me?
label 0

Can you look up the reported call for "O=C(CN1CCN(C(=O)OCc2ccccc2)CCN(CC(=O)N2CCCCC2)CCN(C(=O)OCc2ccccc2)CC1)N1CCCCC1" for me?
label 0
